- System: MCF7
- PROTOCOL DETAILS: percentage of EdU-negative (G0-arrested) nuclei per well, 72 h; higher = more G0 arrest
- STATED CONDITIONS: protein concentration 0.225 µM; reference: sequence is the full UniProt precursor, the tested protein was the secreted form or ectodomain
Attribute: percentage of EdU-negative
Value expressed in %; do not type the unit.

1. MASLRVERAGGPRLPRTRVGRPAALRLLLLLGAVLNPHEALAQPLPTTGTPGSEGGTVKNYETAVQFCWNHYKDQMDPIEKDWCDWAMISRPYSTLRDCLEHFAELFDLGFPNPLAERIIFETHQIHFANCSLVQPTFSDPPEDVLLAMIIAPICLIPFLITLVVWRSKDSEAQA; 23.7

Request: Give the reported percentage of EdU-negative for `MVGKLKQNLLLACLVISSVTVFYLGQHAMECHHRIEERSQPVKLESTRTTVRTGLDLKANKTFAYHKDMPLIFIGGVPRSGTTLMRAMLDAHPDIRCGEETRVIPRILALKQMWSRSSKEKIRLDEAGVTDEVLDSAMQAFLLEIIVKHGEPAPYLCNKDPFALKSLTYLSRLFPNAKFLLMVRDGRASVHSMISRKVTIAGFDLNSYRDCLTKWNRAIETMYNQCMEVGYKKCMLVHYEQLVLHPERWMRTLLKFLQIPWNHSVLHHEEMIGKAGGVSLSKVERSTDQVIKPVNVGALSKWVGKIPPDVLQDMAVIAPMLAKLGYDPYANPPNYGKPDPKIIENTRRVYKGEFQLPDFLKEKPQTEQVE` (system: MCF7).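 Further: secreted proteins added to cultured cells, EdU pulse at the end, nuclei found by Hoechst imaging, EdU status from nuclear versus surrounding ring intensity ratio, PBS as neutral control.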
Response: 25.4

Request: Continue with `MPRCRWLSLILLTIPLALVARKDPKKNETGVLRKLKPVNASNANVKQCLWFAMQEYNKESEDKYVFLVVKTLQAQLQVTNLLEYLIDVEIARSDCRKPLSTNEICAIQENSKLKRKLSCSFLVGALPWNGEFTVMEKKCEDA`
Response: 25.6

Request: Continue with `MWTLGRRAVAGLLASPSPAQAQTLTRVPRPAELAPLCGRRGLRTDIDATCTPRRASSNQRGLNQIWNVKKQSVYLMNLRKSGTLGHPGSLDETTYERLAEETLDSLAEFFEDLADKPYTFEDYDVSFGSGVLTVKLGGDLGTYVINKQTPNKQIWLSSPSSGPKRYDWTGKNWVYSHDGVSLHELLAAELTKALKTKLDLSSLAYSGKDA`
Response: 26.7

Data origin, for the record: the supplement of paper PMC11316812
